Test system: nude mice, HT29 intrarenal xenograft, tumor weight T/C
Assay: NCI In Vivo Anticancer Drug Screen. Data for tumor model HT29;CX-1 Human Adenocarcinoma (MER+) (intrarenal inoculation) in NU/NU Swiss (nude) mice
Details: endpoint: mean tumor weight change; dose: 150.0 mg/kg/injection; schedule: Q04DX004 (sc); vehicle: saline with Tween-80; higher = larger tumour
Results filed as inconclusive are left out.
Here the recorded T/C is given for each entry.

Here's what some known entries look like.
compound="CCCN1COC(OCC)C(C)(C)C1 (stereo not given)" system_under_test="nude mice, HT29 intrarenal xenograft, tumor weight T/C" experimental_readout=T/C val="114 % of control"
compound=O=S1(=O)C=C(c2ccccc2)C(c2ccccc2)=C1 system_under_test="nude mice, HT29 intrarenal xenograft, tumor weight T/C" experimental_readout=T/C val="58 % of control"
compound=Cc1cc2c(C(C)C)c(O)c(O)c(C=O)c2c(O)c1-c1c(C)cc2c(C(C)C)c(O)c(O)c(C=O)c2c1O system_under_test="nude mice, HT29 intrarenal xenograft, tumor weight T/C" experimental_readout=T/C val="64 % of control"
compound=C[n+]1c(/C=N/NC(N)=S)ccc2ccccc21 system_under_test="nude mice, HT29 intrarenal xenograft, tumor weight T/C" experimental_readout=T/C val="75 % of control"
compound=CN=C(N)N/N=C(\C)c1ccc2oc3ccc(/C(C)=N/NC(N)=NC)cc3c2c1 system_under_test="nude mice, HT29 intrarenal xenograft, tumor weight T/C" experimental_readout=T/C val="63 % of control"
compound="CCCCCC1c2cc(O)ccc2OC1N1CCOCC1 (stereo not given)" system_under_test="nude mice, HT29 intrarenal xenograft, tumor weight T/C" experimental_readout=T/C val="34 % of control"

So for Cc1oc2c(C)c3oc(=O)cc(C)c3cc2c1CCl , the logged T/C turned out to be 107 % of control

Reported T/C for C[C@H](CCC[C@H](C)OS(=O)(=O)c1ccccc1)OS(=O)(=O)c1ccccc1 was 35 % of control

Per the records, this compound ( CCCCCCCCCCCCSC1=C(Cl)C(=O)C(OC)=C(OC)C1=O ) has T/C equal to 36 % of control

For reference, reported T/C for Cc1cc(=O)n2c3c(c4c(cc13)c(CN(C)C)cc(=O)n4C)OC2 stands at 57 % of control

Per the record, CN=S(=O)(OCCCCCOS(=O)(=NC)c1ccc(C)cc1)c1ccc(C)cc1 (stereo not given) has T/C of 81 % of control

Entry O=C(O)C1CC1.[Ag] ; T/C = 64 % of control

Form: compound = CC(=O)OCC1(C)NC(=O)c2ccccc2O1 (stereo not given) ; T/C = 78 % of control

Briefly, T/C measured for CCC1=C2C(=O)c3ccccc3C2=C(C)S(=O)(=O)O1 : 70 % of control

compound CS(=O)(=O)c1ncc(Br)cn1 , T/C observed: 109 % of control

The measured T/C associated with O=C1NCC(Br)C(=O)N1 (stereo not given) reads 68 % of control

---

System: nude mice, HT29 intrarenal xenograft, tumor weight T/C
Test: NCI In Vivo Anticancer Drug Screen. Data for tumor model HT29;CX-1 Human Adenocarcinoma (MER+) (intrarenal inoculation) in NU/NU Swiss (nude) mice
Settings: endpoint: mean tumor weight change; dose: 2400.0 mg/kg/injection; schedule: Q04DX004 (sc); vehicle: Klucel (hydroxypropylcellulose) (HPC); higher = larger tumour
Inconclusive results are not listed.
// values below are reported T/C

Known results for compounds:
compound=C#C[C@]1(O)CC[C@H]2[C@@H]3CCc4cc(O)ccc4[C@H]3CC[C@@]21C val="80 % of control"
compound="Cc1ccc(C2NC(=S)N3C(c4ccc(C)cc4)NC(=S)N23)cc1 (configuration not stated)" val="75 % of control"
compound=C[Si](C)(C)OSc1ccccc1[N+](=O)[O-] val="93 % of control"
compound="[I][Hg][CH2]C1OCCOC1[CH2][Hg][I] (configuration not stated)" val="73 % of control"

# T/C measured on nude mice, HT29 intrarenal xenograft, tumor weight T/C for item CCC(=O)O[C@H]1CC[C@H]2[C@@H]3CCC4=CC(=O)CC[C@]4(C)[C@H]3CC[C@]12C = 52 % of control

Tested system nude mice, HT29 intrarenal xenograft, tumor weight T/C; T/C recorded for CC(C)(C)C1CCCCC1 was 55 % of control

nude mice, HT29 intrarenal xenograft, tumor weight T/C T/C of Cc1ccc(C2NC(=O)c3ccccc3N2)s1 (configuration not stated) is 96 % of control

---

System: nude mice, HT29 intrarenal xenograft, tumor weight T/C
Experiment: NCI In Vivo Anticancer Drug Screen. Data for tumor model HT29;CX-1 Human Adenocarcinoma (MER+) (intrarenal inoculation) in NU/NU Swiss (nude) mice
Settings: endpoint: mean tumor weight change; dose: 25.0 mg/kg/injection; schedule: Q01DX010 (sc); vehicle: saline with Tween-80; higher = larger tumour
Records with an inconclusive call do not appear.
Entries and their T/C

Example compounds with recorded T/C:
compound="CCC1CN2C(=N1)c1ccccc1-c1cc(Cl)ccc12 (centres undefined)" val="37 % of control"
compound=CS(=O)(=O)OCCCCOS(C)(=O)=O val="238 % of control"
compound=CC1=C(/C=C/C(C)=C/C=C/C(C)=C/C(=O)O)C(C)(C)CCC1 val="176 % of control"

GET /value?item= CC(=O)O[C@@H]1[C@@H](O)C2=C3[C@]4(C)[C@@H]1C(C)(C)C(=O)C[C@@H]4[C@]3(O)[C@H](OC(C)=O)[C@@]1(C[C@@H]1C)C2=O &field=T/C returns 122 % of control

Looking up O=c1cc(CCl)[nH]nc1CCl , I see its T/C listed as 90 % of control

Reported T/C of C/C(=N/NC(N)=S)c1ccc2ccccc2c1 : 70 % of control

T/C recorded for this compound, O=Cc1ccc([N+](=O)[O-])s1 , is 166 % of control

# T/C of CN(N=O)C(N)=O = 41 % of control

c1cnc2ncncc2n1 yielded T/C of 62 % of control

---

System: nude mice, HT29 intrarenal xenograft, tumor weight T/C
Test: NCI In Vivo Anticancer Drug Screen. Data for tumor model HT29;CX-1 Human Adenocarcinoma (MER+) (intrarenal inoculation) in NU/NU Swiss (nude) mice
Details: endpoint: mean tumor weight change; dose: 1200.0 mg/kg/injection; schedule: Q04DX004 (sc); vehicle: Klucel (hydroxypropylcellulose) (HPC); higher = larger tumour
Records with an inconclusive call do not appear.
EXPERIMENTAL READOUT: T/C

compound=C[Si](C)(C)OSc1ccccc1[N+](=O)[O-] experimental_readout=T/C val="107 % of control"

The reported T/C of the compound Oc1c(Cl)cc(Cl)cc1C1N2CCCCC2C2c3cccn3-c3ccccc3N21 (stereo unspecified) was 111 % of control

The compound identified as O=c1oc2c(O)c(O)cc3c(=O)oc4c(O)c(O)cc1c4c23 registered its T/C at 201 % of control

get_value(item= COc1ccc2ccccc2c1C1NC(=O)c2ccccc2N1 (stereo unspecified) , readout=T/C) returns 201 % of control

// sample [O-][n+]1c(CN2CCCCC2)nc2cccc3c2c1-c1ccccc1-3 , its T/C was 303 % of control

Lookup result for C[C@]12C=CC(=O)C=C1CC[C@@H]1[C@@H]2C(=O)C[C@@]2(C)[C@H]1CC[C@]2(O)C(=O)CO ; measured T/C: 19 % of control

// COC(=O)Nc1cn2cc(C(=O)c3cccs3)ccc2n1 : T/C value = 67 % of control

Summary for this compound, CC(C)(C)C1CCCCC1 : T/C is 56 % of control

For record C=C[Si]12OCCN(CCO1)CCO2 the listed T/C is 110 % of control

Memo: Cc1cc(C)c(-c2cc(O)c(C)cc2O)c(C)c1 , reported T/C: 68 % of control

compound Cc1nn(CCO)c(C)c1N=[N+]([O-])c1c(C)nn(CCO)c1C , T/C observed: 102 % of control

---

Test system: nude mice, HT29 intrarenal xenograft, tumor weight T/C
Assay: NCI In Vivo Anticancer Drug Screen. Data for tumor model HT29;CX-1 Human Adenocarcinoma (MER+) (intrarenal inoculation) in NU/NU Swiss (nude) mice
Conditions: endpoint: mean tumor weight change; dose: 12.5 mg/kg/injection; schedule: Q01DX010 (sc); vehicle: water; higher = larger tumour
Method: The antitumor activity of compounds was measured in mice bearing transplantable tumors. Survival or tumor size were measured and the results are expressed as the measurement made in the treated group (T) divided by the measurement made in the vehicle treated control group (C). The tumor model used in this assay is HT29;CX-1 Human Adenocarcinoma (MER+) (intrarenal inoculation) in NU/NU Swiss (nude) mice
Inconclusive results are not listed.
EXPERIMENTAL READOUT: T/C

// known answers, use as guide
molecule=CN(C)C(=O)c1cccc(COc2ccc(N3C(N)=NC(N)=NC3(C)C)cc2Cl)c1 system_under_test="nude mice, HT29 intrarenal xenograft, tumor weight T/C" val="82 % of control"
molecule="COc1cccc2c1C(=O)c1c(O)c3c(c(O)c1C2=O)CC(O)(/C(C)=N/NC(=O)CCC(=O)N/N=C(\\C)C1(O)Cc2c(O)c4c(c(O)c2C(OC2CC(N)C(O)C(C)O2)C1)C(=O)c1c(OC)cccc1C4=O)CC3OC1CC(N)C(O)C(C)O1 (centres undefined)" system_under_test="nude mice, HT29 intrarenal xenograft, tumor weight T/C" val="47 % of control"
molecule=O=C(Nc1ccc(C2=NCCN2)cc1)c1ccc(C(=O)Nc2ccc(C3=NCCN3)cc2)c(Cl)c1 system_under_test="nude mice, HT29 intrarenal xenograft, tumor weight T/C" val="101 % of control"

Okay, now this molecule:
Please fill in: T/C reported for CC(/C=N/N=C(N)N)=N\N=C(N)N = 67 % of control

Origin of the recorded values: PubChem BioAssay AID206
